Data provenance: ChEMBL document CHEMBL1127647

tested on: MDCK; assay: Minimum inhibitory concentration to reduce cytopathicity by 50% in morphology of Madin-Darby canine kidney cells (MDCK); type: functional; conditions: Canis lupus familiaris
In this section, each of the compounds is paired with its reported MIC.
Quick note: give the figure in µg/mL, leave out the unit.

SMILES_CODE	METRIC_NAME	VALUE_OBSERVED
CCCC#Cc1nc2c(N)ncnc2n1[C@H]1C[C@H](O)[C@@H](CO)O1	MIC	100
CCCCCc1nc2c(N)ncnc2n1[C@H]1C[C@H](O)[C@@H](CO)O1	MIC	100
C#Cc1nc2c(N)ncnc2n1[C@H]1C[C@H](O)[C@@H](CO)O1	MIC	20
CCCCC/C=C\c1nc2c(N)ncnc2n1[C@H]1C[C@H](O)[C@@H](CO)O1	MIC	100
CCCCCC#Cc1nc2c(N)ncnc2n1[C@H]1C[C@H](O)[C@@H](CO)O1	MIC	100

Now consider a different compound.
What value of MIC has been recorded for this entry: "CCCCCCCc1nc2c(N)ncnc2n1[C@H]1C[C@H](O)[C@@H](CO)O1"
100

----------
tested on: MDCK; experiment: Minimum inhibitory concentration required for antiviral activity to reduce influenza B virus (Singapore) induced cytopathicity in Madin-Darby canine kidney cells (MDCK); type: functional; conditions: Canis lupus familiaris
In this section, each of the compounds is paired with its reported MIC.

Worked cases, MIC given:
COMPOUND	MIC
CC#Cc1nc2c(N)ncnc2n1[C@H]1C[C@H](O)[C@@H](CO)O1	> 200 µg/mL
C#Cc1nc2c(N)ncnc2n1[C@H]1C[C@H](O)[C@@H](CO)O1	> 20 µg/mL
CCc1nc2c(N)ncnc2n1[C@H]1C[C@H](O)[C@@H](CO)O1	> 200 µg/mL
Nc1ncnc2c1ncn2[C@H]1C[C@H](O)[C@@H](CO)O1 [DEOXYADENOSINE]	> 200 µg/mL
C/C=C\c1nc2c(N)ncnc2n1[C@H]1C[C@H](O)[C@@H](CO)O1	> 200 µg/mL

Now consider a different compound.
What value of MIC has been recorded for this entry: "CCCCC/C=C\c1nc2c(N)ncnc2n1[C@H]1C[C@H](O)[C@@H](CO)O1"
> 100 µg/mL

----------
system: Vesicular stomatitis virus; test: Minimum inhibitory concentration required for antiviral activity to reduce Vesicular stomatitis virus (VSV) induced cytopathicity in human embryonic skin-muscle cells (ESM); assay type: functional
METRIC_NAME: MIC (µg/mL)
Quick note: give the figure in µg/mL, leave out the unit.

1. CC#Cc1nc2c(N)ncnc2n1[C@H]1C[C@H](O)[C@@H](CO)O1 150

Now consider a different compound.
What value of MIC has been recorded for this entry: "CCCCCc1nc2c(N)ncnc2n1[C@H]1C[C@H](O)[C@@H](CO)O1"
70

----------
In this section, each of the compounds is paired with its reported log10(MIC).
system: Vaccinia virus; experiment: Minimum inhibitory concentration required for antiviral activity to reduce Vaccinia virus (VV) induced cytopathicity in human embryonic skin-muscle cells (ESM); assay type: functional; details: Orthopoxvirus vaccinia
# values: log10(MIC), units µg/mL

1) CCCCCc1nc2c(N)ncnc2n1[C@H]1C[C@H](O)[C@@H](CO)O1 2.18
2) CCCc1nc2c(N)ncnc2n1[C@H]1C[C@H](O)[C@@H](CO)O1 1.85
3) CCCCC/C=C\c1nc2c(N)ncnc2n1[C@H]1C[C@H](O)[C@@H](CO)O1 1.30

Now consider a different compound.
What value of log10(MIC) has been recorded for this entry: "CC#Cc1nc2c(N)ncnc2n1[C@H]1C[C@H](O)[C@@H](CO)O1"
2.48
